- System: SF-295 CNS
- measurement.protocol: NCI tumour cell line growth inhibition, 48 h
Where a SMILES comes first, the peptide text is derived from it. The star is where a group is joined. Cbz = O=C(OCc1ccccc1)*
Hi, to clarify the labels: satisfied covers TGI from 20 µM upward, not satisfied covers anything below 20 µM.

Example results:
CC(NC(=O)C(NC(=O)OCc1ccccc1)C(C)C)C(=O)NCC(=O)O (stereo not drawn) (Cbz-Val-Ala-Gly-OH; configuration not given here)    satisfied
COc1cc(C2CC(c3cccc(Nc4ccncc4)c3)=NN2c2ccc(Cl)cc2)cc(OC)c1OC (stereo unspecified)    not satisfied
CC(=O)O[C@H]1CC[C@@]2(C)C(=CC[C@H]3[C@@H]4C/C(=C\c5ccc(N(C)C)cc5)[C@H](OC(C)=O)[C@@]4(C)CC[C@@H]32)C1    satisfied
C=CN1C(=O)[C@H](Oc2ccccc2)[C@@H]1c1ccccc1    satisfied
O=c1c2ncn(C3CCCO3)c2n(-c2ccccc2)c(=S)n1-c1ccccc1 (stereo unspecified)    satisfied
O=C(O)c1ccc(C(=O)O)c2c(C(=O)O)ccc(C(=O)O)c12    satisfied
COC12C(COC(N)=O)C3=C(C(=O)C(C)=C(N)C3=O)N1CC1C2N1C (stereo unspecified)    not satisfied
[N-]=[N+]=NCc1nc(N)c2c3c(sc2n1)CCCC3    satisfied

Given `CCSC1=N/C(=C\c2ccc(N(C)C)cc2)C(Cl)=N1` , state whether its TGI is at least 20 µM.
satisfied

Given CC1=C(/C=C/C(C)=C/C=C/C(C)=C/C(=O)OC2CC(n3cc(F)c(=O)[nH]c3=O)OC2CO)C(C)(C)CCC1 (stereo unspecified) , state whether its TGI is at least 20 µM.
not satisfied

Given `C[Si](C)(C)/C(Br)=C\CCN1C(=O)CCC1=O` , state whether its TGI is at least 20 µM.
satisfied

Given `COc1ccccc1Nc1ncc(-c2ccccc2)o1` , state whether its TGI is at least 20 µM.
satisfied

Given `CCCOC(=O)CNC(=O)OC(C)(C)C` , state whether its TGI is at least 20 µM.
satisfied

Given `O=C1c2cccc3cccc(c23)C(=O)N1CCCCCN1CCN(CCCCCOc2ccc(-c3nc4ccc(N5CCOCC5)cc4[nH]3)cc2)CC1` , state whether its TGI is at least 20 µM.
satisfied

Given `COC(=O)NC(C(F)(F)F)(C(F)(F)F)P1(=O)OCCCO1` , state whether its TGI is at least 20 µM.
satisfied

Given `O=C(NNc1ccccc1)C(=O)NNc1ccccc1` , state whether its TGI is at least 20 µM.
satisfied

Given `COC(=O)C1=CN(CC2=CC(=O)C(C)=CC2=O)C=C(C(=O)OC)C1c1cccc(OC)c1` , state whether its TGI is at least 20 µM.
satisfied
